The values you see were collected from patent US20220226342A1.

- Tested on: HCC 30
- test.name: IC50 in PDO line
- Assay type: cell-based
- test.settings: Homo sapiens
experimental.readout: IC50 (nM)
Number only, in nM; omit the unit.

Provide IC50, recorded with HCC 30, of COC(=O)C[C@](O)(CCCC(C)(C)O)C(=O)O[C@@H]1C(OC)=C[C@]23CCCN2CCc2cc4c(cc2[C@H]13)OCO4 [omacetaxine, omacetaxine mepusuccinate] 50.6

====

- Tested on: HCC 59
- test.name: IC50 in PDO line
- Format: cell-based
- test.settings: Homo sapiens
experimental.readout: pIC50
Quick note: pIC50 means taking -log10 of the concentration in moles per liter.

Query pIC50 for COC(=O)C[C@](O)(CCCC(C)(C)O)C(=O)O[C@@H]1C(OC)=C[C@]23CCCN2CCc2cc4c(cc2[C@H]13)OCO4 [omacetaxine, omacetaxine mepusuccinate] 7.67
